Test system: Saccharomyces cerevisiae;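 also: PSI is a weighted mean of sequencing reads over stability bins, variants kept only with over 10 reads, mCherry proximal and sfGFP distal, peptide attached via GGGS linker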
test_name: protein stability index of tFT-peptide fusion (C-terminal peptide) (PSI (0-1 scale)); higher = more stable (slower turnover)
assay_context: genetic background: wild type; temperature: 30 C
value_kind: protein stability index
// keep it numeric: no unit symbol after the value

| ordered_residues | protein stability index |
| --- | --- |
| ILEGFRHVSPVG | 0.717 |
| NEIRNKETETVM | 0.665 |

Input: Determine its reported protein stability index: EMGGLKACRGVG
Output: 0.566

Input: Determine its reported protein stability index: PPPPFRPSPPLP
Output: 0.664

Input: Determine its reported protein stability index: NRTPTPNQTPPT
Output: 0.68

Input: Determine its reported protein stability index: EVNGNYNIVGKA
Output: 0.652
